All figures here come from paper PMC10397247.

Target: T1, 4H3631-bN
T1 chain: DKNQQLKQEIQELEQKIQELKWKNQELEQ
Test: two-hybrid library CCNG1;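 also: natural log of median RNA to DNA barcode read ratio; higher means stronger binding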
observable: interaction score

Below are worked cases with known answers.
- binder: "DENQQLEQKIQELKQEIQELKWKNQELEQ [4H1359-bN]"
  interaction score: 0.911
- binder: "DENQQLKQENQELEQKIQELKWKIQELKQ [4H1710-bN]"
  interaction score: 0.993
- binder: "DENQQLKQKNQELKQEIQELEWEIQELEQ [4H1985-bN]"
  interaction score: -1.53
- binder: "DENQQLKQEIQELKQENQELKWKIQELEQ [4H1629-bN]"
  interaction score: -0.59
- binder: "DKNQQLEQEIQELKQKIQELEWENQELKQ [4H3172-bN]"
  interaction score: 1.27
- binder: "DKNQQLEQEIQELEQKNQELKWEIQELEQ [4H3129-bN]"
  interaction score: -1.47
- binder: "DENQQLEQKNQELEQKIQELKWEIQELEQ [4H1449-bN]"
  interaction score: -0.391
- binder: "DKNQQLEQKIQELKQENQELEWKIQELKQ [4H3414-bN]"
  interaction score: -1.25

I. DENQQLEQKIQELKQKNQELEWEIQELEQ [4H1393-bN]
II. DKNQQLKQEIQELEQKIQELKWKNQELEQ [4H3631-bN]
**Q:** Between the two listed entries I and II , which has its interaction score at the higher number? Identify your selection by its label.
**A:** II

I. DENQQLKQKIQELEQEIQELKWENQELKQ [4H1804-bN]
II. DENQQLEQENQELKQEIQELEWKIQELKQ [4H1222-bN]
**Q:** Please indicate which has the smaller reported interaction score: I , or II . Identify your selection by its label.
**A:** I
(I: 0.112, II: 0.357)
